B1: TPR 5TU (parent)
chain: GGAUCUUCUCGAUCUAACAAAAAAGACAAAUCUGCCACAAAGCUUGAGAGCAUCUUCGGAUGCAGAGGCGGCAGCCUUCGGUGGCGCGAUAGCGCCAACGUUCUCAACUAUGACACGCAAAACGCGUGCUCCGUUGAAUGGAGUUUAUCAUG

# Variants of: B1
# PROTOCOL_DESCRIPTION: polymerase ribozyme fitness, log enrichment relative to wild type (log ratio); higher = more active; in vitro selection for triplet polymerase activity
Variants at the floor of the assay were thinned out.
QUANTITY_KIND: polymerase ribozyme fitness (log ratio)

{"columns": ["ALTERATION", "RESULT"],
 "data": [
  ["U101C C132A", -2.05],
  ["A20U C125A", -2.05],
  ["A41U A52C", -2.05]
]}
